Target: human Nav1.7 (hSCN9A) (Homo sapiens, UniProt Q15858)
Sequence (Q15858 whole entry): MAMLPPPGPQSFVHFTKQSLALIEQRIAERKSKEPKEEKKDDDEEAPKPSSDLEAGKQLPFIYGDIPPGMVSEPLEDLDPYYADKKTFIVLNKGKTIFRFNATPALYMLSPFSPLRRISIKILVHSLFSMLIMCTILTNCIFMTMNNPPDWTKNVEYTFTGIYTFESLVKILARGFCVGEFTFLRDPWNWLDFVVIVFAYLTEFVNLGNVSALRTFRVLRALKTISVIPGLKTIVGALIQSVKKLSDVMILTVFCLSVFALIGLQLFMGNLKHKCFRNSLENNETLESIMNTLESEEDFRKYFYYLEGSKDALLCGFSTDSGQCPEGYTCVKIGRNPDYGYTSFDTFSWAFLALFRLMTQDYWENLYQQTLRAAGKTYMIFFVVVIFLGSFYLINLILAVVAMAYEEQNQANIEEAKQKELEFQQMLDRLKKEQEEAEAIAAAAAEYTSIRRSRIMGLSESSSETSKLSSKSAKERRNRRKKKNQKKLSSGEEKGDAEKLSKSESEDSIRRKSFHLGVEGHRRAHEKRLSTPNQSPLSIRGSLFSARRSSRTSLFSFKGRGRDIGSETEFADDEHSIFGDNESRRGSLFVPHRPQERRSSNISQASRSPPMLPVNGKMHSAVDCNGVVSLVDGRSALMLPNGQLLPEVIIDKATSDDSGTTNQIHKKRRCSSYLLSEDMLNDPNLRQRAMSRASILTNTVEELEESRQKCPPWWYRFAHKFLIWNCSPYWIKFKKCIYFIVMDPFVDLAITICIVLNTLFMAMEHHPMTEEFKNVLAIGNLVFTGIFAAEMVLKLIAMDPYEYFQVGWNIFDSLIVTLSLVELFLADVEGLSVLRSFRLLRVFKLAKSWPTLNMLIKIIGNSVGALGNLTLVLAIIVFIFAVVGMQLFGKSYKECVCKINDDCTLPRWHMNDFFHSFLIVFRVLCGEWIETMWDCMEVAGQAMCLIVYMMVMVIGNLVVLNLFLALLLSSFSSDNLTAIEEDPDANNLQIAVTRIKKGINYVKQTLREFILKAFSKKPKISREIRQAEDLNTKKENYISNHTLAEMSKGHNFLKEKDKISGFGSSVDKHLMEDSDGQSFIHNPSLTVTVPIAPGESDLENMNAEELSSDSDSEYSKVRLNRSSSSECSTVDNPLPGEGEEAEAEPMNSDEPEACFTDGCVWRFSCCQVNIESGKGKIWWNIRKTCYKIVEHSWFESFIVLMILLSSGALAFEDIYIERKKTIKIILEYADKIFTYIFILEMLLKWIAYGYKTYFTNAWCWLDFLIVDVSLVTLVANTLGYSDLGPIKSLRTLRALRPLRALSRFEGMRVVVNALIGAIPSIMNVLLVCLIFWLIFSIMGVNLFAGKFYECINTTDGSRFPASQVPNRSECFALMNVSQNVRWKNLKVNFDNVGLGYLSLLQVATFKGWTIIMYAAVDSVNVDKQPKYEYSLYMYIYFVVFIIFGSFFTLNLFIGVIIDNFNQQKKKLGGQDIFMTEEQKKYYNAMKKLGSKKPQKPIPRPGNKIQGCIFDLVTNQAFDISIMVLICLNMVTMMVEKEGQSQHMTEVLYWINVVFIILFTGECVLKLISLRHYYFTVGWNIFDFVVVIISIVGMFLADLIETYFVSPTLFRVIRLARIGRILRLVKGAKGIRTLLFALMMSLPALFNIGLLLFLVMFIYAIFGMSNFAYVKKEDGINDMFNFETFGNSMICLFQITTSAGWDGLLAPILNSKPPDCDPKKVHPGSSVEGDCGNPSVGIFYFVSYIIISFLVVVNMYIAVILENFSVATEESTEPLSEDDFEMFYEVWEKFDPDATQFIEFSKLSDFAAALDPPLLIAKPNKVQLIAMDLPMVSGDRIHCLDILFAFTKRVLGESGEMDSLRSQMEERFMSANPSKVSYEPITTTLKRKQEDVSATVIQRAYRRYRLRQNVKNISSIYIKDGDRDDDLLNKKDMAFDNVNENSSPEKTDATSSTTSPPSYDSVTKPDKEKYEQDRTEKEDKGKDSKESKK
Assay: Electrophysiology assay for Navs, whole cell patch clamp, Nav1.7
Settings: Kinact, dissociation constant for the inactivated state, read-out: activities (Ki) against Nav1.7

>  <molecule>
CC(=O)Nc1cc(C(=O)NC(C)c2ccc(OCC(F)(F)F)nc2)ccn1 (single isomer, unassigned; (-)) [Example 1]

>  <study_target>
human Nav1.7 (hSCN9A) (Homo sapiens, UniProt Q15858)

>  <Ki>
1200 nM

$$$$

* * *

Biological target: human Nav1.3 channels (Homo sapiens)
Sequence (Q9NY46 whole entry): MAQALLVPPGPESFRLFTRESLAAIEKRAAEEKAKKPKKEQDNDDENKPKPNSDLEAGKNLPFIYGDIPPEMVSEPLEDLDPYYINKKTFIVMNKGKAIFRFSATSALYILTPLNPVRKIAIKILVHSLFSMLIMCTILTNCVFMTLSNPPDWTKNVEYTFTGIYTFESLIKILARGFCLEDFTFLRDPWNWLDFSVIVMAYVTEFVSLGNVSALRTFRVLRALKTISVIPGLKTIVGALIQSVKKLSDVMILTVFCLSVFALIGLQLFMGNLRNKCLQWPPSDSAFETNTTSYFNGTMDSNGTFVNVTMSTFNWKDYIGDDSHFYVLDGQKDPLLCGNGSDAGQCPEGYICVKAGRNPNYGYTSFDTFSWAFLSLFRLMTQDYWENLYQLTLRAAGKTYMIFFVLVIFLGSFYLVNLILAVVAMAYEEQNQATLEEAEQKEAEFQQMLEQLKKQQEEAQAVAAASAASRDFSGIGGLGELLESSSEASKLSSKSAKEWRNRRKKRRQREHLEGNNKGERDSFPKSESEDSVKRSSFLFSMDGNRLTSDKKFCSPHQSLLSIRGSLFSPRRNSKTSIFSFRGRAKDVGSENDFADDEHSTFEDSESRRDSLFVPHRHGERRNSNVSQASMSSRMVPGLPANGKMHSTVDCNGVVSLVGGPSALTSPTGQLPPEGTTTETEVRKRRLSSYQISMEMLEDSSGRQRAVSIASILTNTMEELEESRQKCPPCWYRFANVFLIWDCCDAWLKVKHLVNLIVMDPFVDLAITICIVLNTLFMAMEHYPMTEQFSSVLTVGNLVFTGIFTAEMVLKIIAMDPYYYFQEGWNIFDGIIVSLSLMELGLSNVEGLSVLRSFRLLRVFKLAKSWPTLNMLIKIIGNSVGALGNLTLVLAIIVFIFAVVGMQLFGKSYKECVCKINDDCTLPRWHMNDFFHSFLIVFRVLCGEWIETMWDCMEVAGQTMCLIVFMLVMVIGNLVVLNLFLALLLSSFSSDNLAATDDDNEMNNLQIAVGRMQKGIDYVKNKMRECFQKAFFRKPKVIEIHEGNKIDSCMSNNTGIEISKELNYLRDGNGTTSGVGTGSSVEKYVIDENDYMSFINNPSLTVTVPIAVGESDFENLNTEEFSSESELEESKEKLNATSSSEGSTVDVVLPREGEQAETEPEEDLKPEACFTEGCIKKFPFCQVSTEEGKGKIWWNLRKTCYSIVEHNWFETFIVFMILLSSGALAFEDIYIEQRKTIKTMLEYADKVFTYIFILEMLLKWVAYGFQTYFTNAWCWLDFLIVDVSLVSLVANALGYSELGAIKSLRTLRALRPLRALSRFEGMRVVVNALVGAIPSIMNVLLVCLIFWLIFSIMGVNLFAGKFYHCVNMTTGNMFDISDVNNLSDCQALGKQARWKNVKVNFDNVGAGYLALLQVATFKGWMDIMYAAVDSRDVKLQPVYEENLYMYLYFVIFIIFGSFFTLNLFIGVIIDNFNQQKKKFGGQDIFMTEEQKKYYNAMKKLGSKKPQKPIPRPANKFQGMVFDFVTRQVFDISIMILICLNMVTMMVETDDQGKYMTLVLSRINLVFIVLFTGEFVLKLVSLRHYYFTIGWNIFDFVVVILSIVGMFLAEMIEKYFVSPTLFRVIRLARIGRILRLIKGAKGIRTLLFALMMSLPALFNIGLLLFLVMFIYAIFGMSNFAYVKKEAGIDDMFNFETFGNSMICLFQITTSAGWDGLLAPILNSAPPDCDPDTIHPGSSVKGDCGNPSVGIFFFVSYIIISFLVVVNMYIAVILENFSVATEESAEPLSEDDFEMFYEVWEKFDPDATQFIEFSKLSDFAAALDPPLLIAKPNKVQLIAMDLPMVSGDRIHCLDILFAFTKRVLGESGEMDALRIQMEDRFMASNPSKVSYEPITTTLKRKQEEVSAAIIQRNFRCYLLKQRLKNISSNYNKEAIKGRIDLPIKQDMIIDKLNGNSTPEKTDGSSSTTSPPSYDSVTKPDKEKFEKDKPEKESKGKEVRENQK
Experiment: FRET assay, human Nav1.3 (EFS on FDSS)
Details: HEK293 cells expressing human Nav1.3, read-out: IC50 against Nav1.3
pIC50: −log10 of the molar value.
outcome_measure: pIC50

>  <molecule>
CC(=O)Nc1cc(C(=O)NCc2cccc(C(F)(F)F)c2F)cc(C)n1 [Example 729]

>  <study_target>
human Nav1.3 channels (Homo sapiens)

>  <result>
> 6.00

$$$$
>  <molecule>
CCC(=O)Nc1cc(C(=O)NCc2cccc(OCC(F)(F)F)n2)ccn1 [Example 464]

>  <study_target>
human Nav1.3 channels (Homo sapiens)

>  <result>
> 6.00

$$$$
>  <molecule>
Cc1cc(CNC(=O)c2ccnc(NC(=O)C3CC3)c2)nc(OCC(F)(F)F)c1 [Example 578]

>  <study_target>
human Nav1.3 channels (Homo sapiens)

>  <result>
> 6.00

$$$$
>  <molecule>
CCc1cc(CNC(=O)c2cc(C)nc(NC(=O)C3CC3)c2)cnc1OCC(F)(F)F [Example 825]

>  <study_target>
human Nav1.3 channels (Homo sapiens)

>  <result>
> 6.00

$$$$
>  <molecule>
CCC(=O)Nc1cc(C(=O)NCc2cnc(OCC(F)F)c(C)c2)ccn1 [Example 738]

>  <study_target>
human Nav1.3 channels (Homo sapiens)

>  <result>
> 6.00

$$$$
>  <molecule>
CC(=O)Nc1cc(C(=O)NC(C)c2cnc(OCC(F)(F)C(F)F)c(C)c2)cc(C)n1 (single isomer, unassigned) [Example 927]

>  <study_target>
human Nav1.3 channels (Homo sapiens)

>  <result>
> 6.00

$$$$
>  <molecule>
Cc1cc(C(C)NC(=O)c2ccnc(NC(=O)C3CC3)n2)cnc1OCC(F)F (single isomer, unassigned) [Example 558]

>  <study_target>
human Nav1.3 channels (Homo sapiens)

>  <result>
> 6.00

$$$$
>  <molecule>
CC(NC(=O)c1ccnc(NC(=O)C2CC2)n1)c1ccc(OCC(F)(F)F)c(Cl)c1 (single isomer, unassigned) [Example 680]

>  <study_target>
human Nav1.3 channels (Homo sapiens)

>  <result>
> 6.00

$$$$
>  <molecule>
Cc1cc(C(=O)NCc2cccc(OC(F)(F)F)c2)cc(NC(=O)CC2CC2)n1 [Example 962]

>  <study_target>
human Nav1.3 channels (Homo sapiens)

>  <result>
> 6.00

$$$$
>  <molecule>
CCC(=O)Nc1cc(C(=O)NCc2ccc(OCC(C)(F)F)nc2)cc(C)n1 [Example 721]

>  <study_target>
human Nav1.3 channels (Homo sapiens)

>  <result>
> 6.00

$$$$
>  <molecule>
CC(C)C(=O)Nc1cc(C(=O)NCc2cccc(C(F)(F)F)c2)ccn1 [Example 533]

>  <study_target>
human Nav1.3 channels (Homo sapiens)

>  <result>
> 6.00

$$$$
>  <molecule>
Cc1cc(CNC(=O)c2ccnc(NC(=O)C3CC3)c2)cc(OC(F)(F)F)c1 [Example 599]

>  <study_target>
human Nav1.3 channels (Homo sapiens)

>  <result>
> 6.00

$$$$
>  <molecule>
CCC(=O)Nc1cc(C(=O)NCc2ccc(OCC(F)(F)C(F)(F)F)nc2)ccn1 [Example 639]

>  <study_target>
human Nav1.3 channels (Homo sapiens)

>  <result>
> 6.00

$$$$
>  <molecule>
Cc1cc(C(=O)NC(C)c2cnc(OCC(F)(F)F)c(C)c2)cc(NC(=O)C(C)C)n1 (single isomer, unassigned) [Example 520]

>  <study_target>
human Nav1.3 channels (Homo sapiens)

>  <result>
> 6.00

$$$$
>  <molecule>
Cc1cc(CNC(=O)c2ccnc(NC(=O)C3CC3)c2)ccc1OC(F)(F)F [Example 806]

>  <study_target>
human Nav1.3 channels (Homo sapiens)

>  <result>
> 6.00

$$$$
>  <molecule>
CC(C)C(=O)Nc1cc(C(=O)NCc2ccc(OCC(F)(F)C(F)(F)F)nc2)ccn1 [Example 641]

>  <study_target>
human Nav1.3 channels (Homo sapiens)

>  <result>
> 6.00

$$$$
